Values compiled from patent US20160031986A1.

Each entry below carries its recorded koff.
Target: cynomolgus monkey DLL4 extracellular domain (cynomolgus monkey)
Experiment: Biacore SPR
State just the number; it will be interpreted in s⁻¹.

Example binders with recorded koff:
[
  {
    "BINDER": "h1A11.A7 (antibody, V domains shown) VH: EVQLVESGGGLVQPGGSLRLSCAASGFTFSNFPMAWVRQAPGKGLEWVATISSSDGTTYYRDSVKGRFTISRDNAKNSLYLQMNSLRAEDTAVYYCARGYYNSPFAYWGQGTLVTVSS VL: DIQMTQSPSSLSASVGDRVTITCRASQDIYINLAWYQQKPGKAPKLLIFDTSDLADGVPSRFSGSGSGTDFTLTISSLQPEDFATYYCQQYDYYPPTFGQGTKLEIK",
    "koff (s⁻¹)": 0.00124
  },
  {
    "BINDER": "32C7 rat monoclonal antibody (antibody, V domains shown) VH: EVQLVESGGGLVQPGRSLKLSCLASGFPFSSVWMTWIRQAPGKGLEWIATITNSGASTYYSASVKGRFTISRDNVKSTLYLQMTSLGSEDTATYYCTRVGTSFDYWGQGVMVTVSS VL: DIQMTQSPASLSASLGETVTIECRASDDIYNGLAWFQQKPGKSPQLLIYDANTLHTGVPSRFSGSGSGTQFSLKINSLQSEDVASYFCQQFYDYPPYTFGAGTKLELKR",
    "koff (s⁻¹)": "6.3e-06"
  }
]

Continue with the next binder.
Item under review: 15D6 rat monoclonal antibody (antibody, V domains shown) VH: EVQLQQSGPELAKPGSSVKISCKASGYTFTSSYISWIKQTTGQGLEYIGYINTGSGGTDYNEKFKDKATLTVDKSSRTVFMQLSSLTPGDSAVYYCAKSILLGSTYYLDYWGQGVMVTVSS VL: DTVLTQSPALAVSLGQRVTISCKASRSLSSPMYSYIYWYQQKLGQQPRLLIYRASTLASGVPARFSGSGSGTDFTLNIDPVEADDIATYFCQQSWSDPFTFGSGTKLEIKR . Reported koff?
0.00083
